Where these numbers come from: patent US20230142090A1

- Tested on: cholera toxin genes ctxAB
- Format: cell-based, Vibrio cholerae C6706 EI Tor strain
repression of ctxAB listing for selected molecules.

Worked examples, 2 molecules total:
CCCCCCCCCCCCC/C=C\C(=O)O [c2-HDA, (Z)-hexadec-2-enoic acid]: 20 fold
O=C(O)CCCN1C(=O)c2cccc3cccc(c23)C1=O [virstatin, reference compound]: 1.2 fold

Now look at this one.
### Prompt Could you tell me which repression of ctxAB is on file for CCCCCCCC/C=C\CCCCCCCC(=O)O [oleic acid, cis-9-octadecenoic acid, reference compound] ?
### Response 1.3 fold
